Measured IC50 values are reported for all entries that follow.
Tested on: MCF7
Test: cells
Type: functional, cell-based
Settings: Homo sapiens

compound	target or system	IC50 (µM)
COc1ccc(-c2coc(=O)n2-c2cc(OC)c(OC)c(OC)c2)cc1N	MCF7	1.8
COc1ccc(-c2oc(O)nc2-c2cc(OC)c(OC)c(OC)c2)cc1N	MCF7	4.9

----------
Molecular target: Prostaglandin G/H synthase 2 (Ovis aries, UniProt P79208)
Sequence (P79208 whole entry): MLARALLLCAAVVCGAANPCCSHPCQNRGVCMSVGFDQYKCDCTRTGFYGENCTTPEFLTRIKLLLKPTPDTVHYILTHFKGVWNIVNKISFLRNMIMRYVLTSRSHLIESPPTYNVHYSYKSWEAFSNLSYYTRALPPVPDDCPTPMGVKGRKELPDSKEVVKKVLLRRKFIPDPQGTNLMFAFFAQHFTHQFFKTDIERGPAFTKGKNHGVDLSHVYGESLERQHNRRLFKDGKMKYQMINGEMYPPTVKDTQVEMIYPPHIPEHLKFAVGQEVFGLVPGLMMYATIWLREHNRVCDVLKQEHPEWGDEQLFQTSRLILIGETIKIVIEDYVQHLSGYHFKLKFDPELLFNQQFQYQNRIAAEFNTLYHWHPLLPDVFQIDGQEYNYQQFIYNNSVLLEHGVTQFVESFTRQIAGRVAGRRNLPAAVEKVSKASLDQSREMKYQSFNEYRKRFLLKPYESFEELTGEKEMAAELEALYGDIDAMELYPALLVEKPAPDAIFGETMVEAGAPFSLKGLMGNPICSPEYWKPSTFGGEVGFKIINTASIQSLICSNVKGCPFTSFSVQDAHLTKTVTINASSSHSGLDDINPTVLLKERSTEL
pIC50: −log10 of the molar value.

molecule	target or system	pIC50
CC1C(c2ccc(F)cc2)=C(c2ccc(S(C)(=O)=O)cc2)ON1C (stereo unspecified)	Prostaglandin G/H synthase 2 (Ovis aries, UniProt P79208)	7.50

----------
Tested on: MCF7
Experiment: cells
Format: functional, cell-based
Settings: Homo sapiens, MCF7, 48 h
endpoint name: IC50 (µM)

compound	endpoint name	endpoint unit	recorded number
COC(=O)c1ccc(-n2nc(C(F)(F)F)cc2-c2cc(OC)c(OC)c(OC)c2)cc1	IC50	µM	1.3

----------
Measured pIC50 values are reported for all entries that follow.
Target: Prostaglandin G/H synthase 2 (Ovis aries, UniProt P79208)
Sequence (P79208 whole entry): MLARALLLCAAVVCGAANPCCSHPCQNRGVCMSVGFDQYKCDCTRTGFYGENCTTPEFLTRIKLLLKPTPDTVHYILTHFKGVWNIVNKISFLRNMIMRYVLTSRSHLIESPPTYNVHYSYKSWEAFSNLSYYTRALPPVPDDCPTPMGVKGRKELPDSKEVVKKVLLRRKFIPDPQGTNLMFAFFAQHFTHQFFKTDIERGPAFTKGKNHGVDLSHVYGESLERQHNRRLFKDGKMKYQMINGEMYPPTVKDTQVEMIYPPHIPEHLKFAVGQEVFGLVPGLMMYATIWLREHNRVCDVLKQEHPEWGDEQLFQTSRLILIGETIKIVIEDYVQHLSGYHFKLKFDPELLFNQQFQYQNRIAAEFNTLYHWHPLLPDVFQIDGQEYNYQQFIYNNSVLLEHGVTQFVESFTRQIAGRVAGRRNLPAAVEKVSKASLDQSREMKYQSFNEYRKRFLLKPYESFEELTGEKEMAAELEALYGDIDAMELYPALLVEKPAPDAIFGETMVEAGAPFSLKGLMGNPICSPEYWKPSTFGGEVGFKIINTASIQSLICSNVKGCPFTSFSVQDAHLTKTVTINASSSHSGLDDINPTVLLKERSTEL
pIC50: −log10 of the molar value.

compound	pIC50
Cc1ccc(-c2cc(C(F)(F)F)nn2-c2ccc(N=[N+]=[N-])cc2)cc1	5.81
[N-]=[N+]=Nc1ccc(C2=C(c3ccccc3)C(=O)OC2)cc1	6.71
